target: mGluR4 (UniProt Q14833); assay: mGluR4 potentiation assay (fluorescence, Ca2+ or thallium/GIRK readout; EC20 agonist); details: half maximal effective concentration for mGluR4 potentiation; species of receptor not given
readout: EC50 (µM)
Provide only the numeric value, understood in µM.

Lookup: Determine its reported EC50: O=C(Nc1ccc(N2C(=O)C3COCCN3C2=O)c(Cl)c1)c1ncccc1F (stereo not drawn)
Found: 5.82

Lookup: Given the compound O=C(Nc1ccc(N2C(=O)C3CN(C(=O)c4ccco4)CCN3C2=O)c(Cl)c1)c1ccccn1 (stereo not drawn) , write its reported EC50.
Found: 0.967

Lookup: Please report the measured EC50 for O=C(Nc1ccc(N2C(=O)C3CCCN3C2=O)c(Cl)c1)c1ccccn1 (stereo not drawn)
Found: 2.11

Lookup: Report EC50, nothing else, for this compound: CC12CCCCN1C(=O)N(c1ccc(NC(=O)c3cccc(Cl)n3)cc1Cl)C2=O (stereo not drawn)
Found: 0.864

Lookup: Tell me measured EC50 for O=C(Nc1ccc(N2C(=O)C3CNCCN3C2=O)c(Cl)c1)c1ccccn1 (stereo not drawn) please.
Found: 4.2

Lookup: Check the records and state EC50 for O=C(Nc1ccc(N2C(=O)C3CCCCN3C2=S)c(Cl)c1)c1nccs1 (stereo not drawn)
Found: 1.34

Lookup: Report EC50 for O=C(Nc1ccc(N2C(=O)C3COCCN3C2=O)c(Cl)c1)c1nccs1 (stereo not drawn)
Found: 6.32

Lookup: Please report the measured EC50 for O=C(Nc1ccc(N2C(=O)C3COCCN3C2=O)c(Cl)c1)c1cccc(F)n1 (stereo not drawn)
Found: 6.73

Lookup: Return EC50 for the following compound: O=C(Nc1ccc(N2C(=O)NC3(CCCCC3)C2=O)c(C(F)(F)F)c1)c1ccco1
Found: 4.12

Lookup: Give a short answer stating reported EC50 for CC12CCCCN1C(=S)N(c1ccc(NC(=O)c3nccs3)cc1Cl)C2=O (stereo not drawn) .
Found: 0.761

Lookup: Please list EC50 recorded for the compound O=C(Nc1ccc(N2C(=O)C3COCCN3C2=S)c(Cl)c1)c1cnccn1 (stereo not drawn)
Found: 3.56

Lookup: Give the reported EC50 for this compound. O=C(Nc1ccc(N2C(=O)C3COCCN3C2=S)c(Cl)c1)c1ccc(Cl)o1 (stereo not drawn)
Found: 5.05

Lookup: Quickly give me recorded EC50 for O=C(Nc1ccc(N2C(=O)C3COCCN3C2=O)c(Cl)c1)c1ccc(Cl)o1 (stereo not drawn)
Found: 8.77

Lookup: Specify EC50 for CC12CCCCN1C(=O)N(c1ccc(NC(=O)c3ccc(Cl)o3)cc1Cl)C2=O (stereo not drawn) and stop.
Found: 4.67

Lookup: Answer with the recorded EC50 for the compound listed here: O=C(Nc1ccc(N2C(=O)C3CCCCN3C2=O)c(Cl)c1)c1ccncn1 (stereo not drawn)
Found: 2.58

Lookup: Please give the documented EC50 of CC(C)[C@@]1(C)NC(=O)N(c2ccc(NC(=O)c3ccccn3)cc2Cl)C1=O
Found: 3.59

Lookup: Look up and report measured EC50 for this entry: C[C@@]1(Cc2ccccc2)NC(=O)N(c2ccc(NC(=O)c3cccc(F)n3)cc2Cl)C1=O
Found: 1.63

Lookup: Supply recorded EC50 for O=C(Nc1ccc(N2C(=O)C3COCCN3C2=S)c(Cl)c1)c1ccccn1 (stereo not drawn) here.
Found: 1.47

Lookup: Quickly give me recorded EC50 for CC(C)(C)C(=O)N1CCN2C(=O)N(c3ccc(NC(=O)c4ccccn4)cc3Cl)C(=O)C2C1 (stereo not drawn)
Found: 1.07

Lookup: Annotate the compound CN1CC(=O)N(c2ccc(NC(=O)c3ccccn3)cc2Cl)C1=O with its measured EC50.
Found: 7.06

Lookup: Query EC50 for O=C(Nc1ccc(N2C(=O)C3CSCCN3C2=O)c(Cl)c1)c1ccccn1 (stereo not drawn)
Found: 0.403

Lookup: Please indicate EC50 recorded for CC12CCCCN1C(=S)N(c1ccc(NC(=O)c3ccc(Cl)o3)cc1Cl)C2=O (stereo not drawn)
Found: 0.828

Lookup: # return recorded EC50 for input CCN1C(=O)N(c2ccc(NC(=O)c3ccccn3)cc2Cl)C(=O)[C@]1(C)Cc1ccccc1
Found: 0.236

Lookup: Output measured EC50 for this item: O=C(Nc1ccc(N2C(=O)C3COCCN3C2=S)c(Cl)c1)c1ncccc1F (stereo not drawn)
Found: 1.2

Lookup: Please list EC50 recorded for the compound O=C(Nc1ccc(N2C(=O)C3CCCCN3C2=O)c(Cl)c1)c1cscn1 (stereo not drawn)
Found: 1.98

Lookup: Return value of EC50 for input COc1cc(NC(=O)c2ccccn2)ccc1N1C(=O)C2CCCCN2C1=O (stereo not drawn) , no commentary.
Found: 2.7

Lookup: Provide measured EC50 value, entry: CC(C)[C@]1(C)NC(=O)N(c2ccc(NC(=O)c3ccccn3)cc2Cl)C1=O
Found: 1.5

Lookup: For the compound O=C(Nc1ccc(N2C(=O)C3COCCN3C2=S)c(Cl)c1)c1ncc(F)cc1F (stereo not drawn) , give its measured EC50 value.
Found: 1.68

Lookup: Please report the measured EC50 for O=C(Nc1ccc(N2C(=O)NC(C3CCCCC3)C2=O)c(Cl)c1)c1ccccn1 (stereo not drawn)
Found: 0.743

Lookup: Look up and state reported EC50 for O=C(Nc1ccc(N2C(=O)C3COCCN3C2=S)c(Cl)c1)c1cccc(Cl)n1 (stereo not drawn)
Found: 1.49

Lookup: Name the recorded EC50 of the compound listed here: O=C(Nc1ccc(N2C(=O)C3COCCN3C2=O)c(Cl)c1)c1ncc(F)cc1F (stereo not drawn)
Found: 2.93

Lookup: Return EC50 (reported value) for this compound: O=C(Nc1ccc(N2C(=O)NC3(CCCCCC3)C2=O)c(Cl)c1)c1ccccn1
Found: 0.222

Lookup: Supply reported EC50 belonging to this compound: O=C(Nc1ccc(N2C(=O)C3CN(C4CCCCC4)CCN3C2=O)c(Cl)c1)c1ccccn1 (stereo not drawn)
Found: 2.23
